# testedSystem: EP2 (Homo sapiens)
# Sequence (P43116 whole entry): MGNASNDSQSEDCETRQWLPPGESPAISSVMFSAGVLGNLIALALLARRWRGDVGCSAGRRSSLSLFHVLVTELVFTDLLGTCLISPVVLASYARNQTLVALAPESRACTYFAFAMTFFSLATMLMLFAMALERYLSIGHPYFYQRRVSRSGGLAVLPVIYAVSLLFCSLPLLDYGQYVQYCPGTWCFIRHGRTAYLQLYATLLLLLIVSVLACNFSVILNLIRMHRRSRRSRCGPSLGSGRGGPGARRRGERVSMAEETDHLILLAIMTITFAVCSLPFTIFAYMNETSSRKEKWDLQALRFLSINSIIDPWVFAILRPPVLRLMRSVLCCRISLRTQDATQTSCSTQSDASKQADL
# methodDescription: EP2 Ca2+ signal assay
# Assay type: cell-based
# reportedConditions: relative to PGE2
measurementLabel: EP2 Ca2+ signal % PGE2 (%)

C[C@@H](O)CCC[C@H](O)/C=C/[C@H]1[C@H](O)CC(=O)[C@@H]1C/C=C\CCCC(=O)O = 100
C[C@@H](O)CCC[C@H](O)/C=C/[C@H]1[C@H](O)CC(=O)[C@@H]1CCCCCCC(=O)O = 100
C[C@H](O)CCC[C@H](O)/C=C/[C@@H]1[C@@H](CCCc2ccc(C(=O)O)s2)[C@H](Cl)C[C@H]1O = 91
C[C@@H](O)CCC[C@H](O)/C=C/[C@@H]1[C@@H](CCCc2ccc(C(=O)O)s2)[C@H](Cl)C[C@H]1O = 106

Entry source: patent US8546603B2
